target: SNAP-hSPR (sepiapterin reductase, SPR) (Homo sapiens)
Sequence (P35270 whole entry): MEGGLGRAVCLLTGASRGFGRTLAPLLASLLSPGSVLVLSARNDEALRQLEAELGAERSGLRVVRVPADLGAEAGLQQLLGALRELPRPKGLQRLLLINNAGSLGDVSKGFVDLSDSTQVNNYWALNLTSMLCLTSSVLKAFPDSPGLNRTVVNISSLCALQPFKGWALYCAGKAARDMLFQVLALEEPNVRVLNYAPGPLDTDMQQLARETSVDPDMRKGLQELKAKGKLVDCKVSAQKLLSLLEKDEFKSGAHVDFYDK
pIC50: −log10 of the molar value.
Assign true whenever pIC50 does not fall below 8; assign false whenever it does.

> print(dat)
                                smiles.text  category.label
1  Cc1c(C(=O)N2CCN(S(=O)(=O)c3ccccc3C#N)CC2)cnn1-c1nn2cccc2c(=O)[nH]1            true
2  Cc1c(C(=O)N2CCN(S(=O)(=O)c3c(Cl)cccc3Cl)CC2)cnn1-c1nn2cccc2c(=O)[nH]1            true
3  Cc1cc(=O)[nH]c(-c2cnn(CCC(=O)N3CCCC3)c2)n1           false
4  Cc1c(C(=O)N2CC[C@H](N(C)C(=O)OC(C)(C)C)C2)cnn1-c1nn2cccc2c(=O)[nH]1            true
5  Cc1c(C(=O)N2CCN(C)CC2)cnn1-c1nc2c(c(=O)[nH]1)CCC2           false
6  Cc1c(C(=O)N2CCN(S(=O)(=O)c3cccs3)CC2)cnn1-c1nn2cccc2c(=O)[nH]1            true

Reference source for all entries: patent US9963462B2
